Each recorded value in this set is attributed to PubChem BioAssay (NCI).

System: SF-539 CNS
Test: NCI-60 one-dose screen, 48 h
Conditions: 10 µM
This is part of a sample that, as a whole, favours compounds with a hit. Of some 83,000 tested, about 20% had one in any assay. Active and inactive are the calls of the source. The calls were made as follows: active = growth percent below 10; inactive = the rest.
Respond only with the outcome that fits, drawn from 1 (yes) = active, 0 (no) = inactive

Past entries and their recorded results:
1) CC(C)c1[nH]nc2c(NCc3ccc(-c4ccccn4)cc3)nc(SCCN)nc12; 1 (yes)
2) N=C(N)c1ccc(-c2ccc(-c3cccs3)s2)nc1; 0 (no)

Query: recorded result category for C#CCNCCCN1C(=O)c2ccc3c4c(ccc(c24)C1=O)C(=O)N(CCCNCC#C)C3=O in this test
1 (yes)

Query: recorded result category for COc1cc(NS(C)(=O)=O)ccc1Nc1c2ccc(Cl)cc2nc2c(OC)cccc12 in this test
1 (yes)

Query: recorded result category for COc1cc(-c2nc(-c3nnc(-c4cccnc4)o3)c3ccccn23)cc(OC)c1OC in this test
0 (no)

Query: recorded result category for CCCCCCCCCCCC(=O)NCCCN(C)C in this test
0 (no)

Query: recorded result category for CC(Oc1ccc(Cl)cc1)c1ccccc1 (stereo unspecified) in this test
0 (no)

Query: recorded result category for COc1cccc2c1C(=O)c1c(O)c3c(c(O)c1C2=O)C[C@@](O)(C(=O)COC(=O)c1cccnc1)C[C@@H]3OC1CC(N)C(O)C(C)O1 (stereo partly specified) in this test
1 (yes)

Query: recorded result category for COc1ccc(-c2nc3sc(-c4ccccc4)c(-c4ccccc4)n3c2/C=C/c2ccc(F)cc2)cc1 in this test
0 (no)

Query: recorded result category for N#Cc1c(-c2ccccc2)nc(SCC(=O)N2CCOCC2)[nH]c1=O in this test
0 (no)

Query: recorded result category for CC(C)C[C@H](NC(=O)Cn1ccc2ccccc2c1=O)B(O)O in this test
0 (no)

Query: recorded result category for O=C(Nc1ccc(OCc2nnc(-c3ccccc3)o2)c(F)c1)Nc1ccc(Cl)c(Cl)c1 in this test
0 (no)
